Below, each entry is listed alongside its reported IC50.
- TESTED_TARGET: P70S6K (T412E mutant) (Homo sapiens (Human), UniProt P23443, T412E)
- Sequence (P23443 whole entry T412E): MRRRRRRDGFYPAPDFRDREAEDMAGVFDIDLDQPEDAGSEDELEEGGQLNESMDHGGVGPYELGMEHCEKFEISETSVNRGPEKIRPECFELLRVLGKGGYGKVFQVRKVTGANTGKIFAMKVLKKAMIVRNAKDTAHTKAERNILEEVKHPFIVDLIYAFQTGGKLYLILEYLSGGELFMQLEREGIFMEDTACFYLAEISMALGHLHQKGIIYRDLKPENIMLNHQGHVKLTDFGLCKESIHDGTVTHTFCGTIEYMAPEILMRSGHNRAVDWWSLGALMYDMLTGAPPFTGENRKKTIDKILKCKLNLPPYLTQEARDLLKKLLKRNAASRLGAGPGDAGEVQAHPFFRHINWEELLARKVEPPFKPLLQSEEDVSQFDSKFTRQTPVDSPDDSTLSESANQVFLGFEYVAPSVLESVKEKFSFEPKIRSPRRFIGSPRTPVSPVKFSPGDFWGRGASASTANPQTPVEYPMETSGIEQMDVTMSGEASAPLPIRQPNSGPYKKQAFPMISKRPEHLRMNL
- PROTOCOL_NOTES: P70S6K enzyme assay
- CONDITION_NOTES: 3 nM P70S6K T412E mutant, 24 μM ATP, 1 μM FITC-AHA-AKRRRLSSLRA-OH substrate peptide, 90 min at 25° C.

- MOLECULE: "CS(=O)(=O)c1ccc(C(C#N)N2CCN(c3ncnc(N)c3-c3cn[nH]c3)CC2)cc1 (stereo not drawn)"
  TESTED_TARGET: "P70S6K (T412E mutant) (Homo sapiens (Human), UniProt P23443, T412E)"
  IC50: "> 1 µM"
- MOLECULE: "Nc1cc(N2CCN(C(CN3CCCC3)c3cccc(C(F)(F)F)c3)CC2)ncn1 (stereo not drawn)"
  TESTED_TARGET: "P70S6K (T412E mutant) (Homo sapiens (Human), UniProt P23443, T412E)"
  IC50: "> 1 µM"
- MOLECULE: "N#CC(c1ccc(F)c(C(F)(F)F)c1)N1CCN(c2ncnc(N)c2-c2ccc(F)cc2)CC1 (stereo not drawn)"
  TESTED_TARGET: "P70S6K (T412E mutant) (Homo sapiens (Human), UniProt P23443, T412E)"
  IC50: "> 1 µM"
